Assignment: determine reported inhibition for the given compounds.
Assay Name: Inhibition of HIV1 His6-tagged integrase-LEDGF/p75 (unknown origin) interaction at 100 uM incubated for 30 mins followed by LEDGF/p75 addition measured after 4 hrs relative to control

Guide cases for inhibition, answers given:
Compound	Measurement Kind	Value Reported
COc1ccc2nc(C)cc(Nc3cccc(C(=O)O)c3)c2c1	inhibition	30%
Cc1ccc2[nH]c(=O)c(CC(=O)O)c(-c3ccccc3)c2c1	inhibition	61%
Cc1c(OC(C(=O)O)c2ccccc2)ccc2c(-c3ccccc3)cc(=O)oc12 (racemic)	inhibition	87%
O=C(O)c1cc(N(Cc2ccccc2O)Cc2ccccc2O)ccc1O	inhibition	58%
O=C(O)c1nn(Cc2ccc(Cl)cc2Cl)c2ccccc12	inhibition	40%
Cc1cn2c3c(=O)n(CCc4ccccc4)c(=O)n(C)c3nc2n1CC(=O)O	inhibition	52%

Req: Consider the compound shown here: CCc1cc(C(=O)Cc2ccc3c(c2)OCCO3)c(O)cc1OCC(=O)O What is its recorded inhibition?
Resp: 50%
